molecular target: SMARCA2 (Homo sapiens); construct: endogenous in cells; host or cells: RKO cells (CRL-2577, ATCC); test: SMARCA2 degradation analysis by imaging in RKO cells (DC50 A2); assay type: cell-based; settings: tables 69, 70, 73, 76-78
Sequence (P51531 whole entry): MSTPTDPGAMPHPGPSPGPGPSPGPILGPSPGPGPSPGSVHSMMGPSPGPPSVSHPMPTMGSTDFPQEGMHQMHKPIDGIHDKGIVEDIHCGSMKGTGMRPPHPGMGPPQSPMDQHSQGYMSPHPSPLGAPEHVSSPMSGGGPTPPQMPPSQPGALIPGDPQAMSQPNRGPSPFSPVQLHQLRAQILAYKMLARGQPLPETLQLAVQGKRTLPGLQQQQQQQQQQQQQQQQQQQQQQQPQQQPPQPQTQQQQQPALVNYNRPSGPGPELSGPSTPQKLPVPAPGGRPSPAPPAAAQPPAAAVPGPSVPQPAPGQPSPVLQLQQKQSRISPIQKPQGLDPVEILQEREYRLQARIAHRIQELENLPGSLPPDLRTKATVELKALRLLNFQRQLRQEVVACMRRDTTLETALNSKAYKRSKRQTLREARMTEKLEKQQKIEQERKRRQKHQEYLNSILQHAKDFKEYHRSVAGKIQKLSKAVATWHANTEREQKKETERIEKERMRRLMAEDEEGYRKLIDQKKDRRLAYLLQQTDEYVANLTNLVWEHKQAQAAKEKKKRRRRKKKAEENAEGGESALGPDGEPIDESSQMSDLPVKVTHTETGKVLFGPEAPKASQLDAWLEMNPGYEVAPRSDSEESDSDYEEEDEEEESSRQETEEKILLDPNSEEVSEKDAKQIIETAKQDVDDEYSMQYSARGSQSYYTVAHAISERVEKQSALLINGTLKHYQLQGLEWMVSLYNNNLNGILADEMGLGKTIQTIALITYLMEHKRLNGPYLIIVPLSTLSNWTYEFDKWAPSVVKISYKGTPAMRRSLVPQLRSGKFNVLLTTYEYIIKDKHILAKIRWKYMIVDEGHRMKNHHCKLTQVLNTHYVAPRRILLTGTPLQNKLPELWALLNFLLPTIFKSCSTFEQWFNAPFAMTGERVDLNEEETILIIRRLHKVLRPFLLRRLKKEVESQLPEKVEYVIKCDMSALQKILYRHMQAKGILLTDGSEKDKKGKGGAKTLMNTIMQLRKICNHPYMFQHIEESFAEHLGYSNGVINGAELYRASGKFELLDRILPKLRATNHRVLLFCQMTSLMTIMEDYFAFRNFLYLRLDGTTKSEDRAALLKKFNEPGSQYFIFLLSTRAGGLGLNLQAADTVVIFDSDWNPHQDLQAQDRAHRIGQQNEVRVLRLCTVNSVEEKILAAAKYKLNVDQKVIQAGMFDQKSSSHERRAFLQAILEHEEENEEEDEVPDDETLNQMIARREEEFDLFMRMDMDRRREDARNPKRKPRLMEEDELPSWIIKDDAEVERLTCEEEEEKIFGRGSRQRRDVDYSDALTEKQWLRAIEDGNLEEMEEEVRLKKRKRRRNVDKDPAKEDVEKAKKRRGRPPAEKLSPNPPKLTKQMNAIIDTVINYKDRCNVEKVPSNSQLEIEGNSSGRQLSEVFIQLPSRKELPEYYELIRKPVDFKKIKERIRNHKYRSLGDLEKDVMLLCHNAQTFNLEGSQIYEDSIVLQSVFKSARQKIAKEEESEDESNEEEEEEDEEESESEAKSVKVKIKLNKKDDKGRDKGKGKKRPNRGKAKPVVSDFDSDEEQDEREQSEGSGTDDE
property.measured: DC50
Respond with a number, then the unit of measure.

compound	study.target	DC50
CCn1c2cc(C3CCN(CCCCC[C@H](NC(=O)[C@@H]4C[C@@H](O)CN4C(=O)[C@@H](NC(=O)C4(F)CC4)C(C)(C)C)c4ccc(-c5scnc5C)cc4)CC3)ccc2n2c3cccc(Br)c3c(=O)nc12 [Compound 42ba]	SMARCA2 (Homo sapiens)	4 nM
Cc1ncsc1-c1ccc([C@H](COCC(O)CN2CCC(c3ccc4c(c3)n(C3CCCC3)c3nc(=O)c5c(Br)cccc5n43)CC2)NC(=O)[C@@H]2C[C@@H](O)CN2C(=O)[C@@H](NC(=O)C2(F)CC2)C(C)(C)C)cc1 (stereo partly shown) [Compound 42af]	SMARCA2 (Homo sapiens)	6 nM

Query: Sample Cc1ncsc1-c1ccc([C@H](COCCN2CCC(c3ccc4c(c3)n(C3CCCC3)c3nc(=O)c5c(Br)cccc5n43)CC2)NC(=O)[C@@H]2C[C@@H](O)CN2C(=O)[C@@H](NC(=O)C2(C(F)(F)F)CC2)C(C)(C)C)cc1 [Compound 42bc] — what was its DC50?
Result: 19 nM

Query: Request: Cc1ncsc1-c1ccc([C@H](CO[C@H](C)CN2CCC(c3ccc4c(c3)n(C3CCCC3)c3nc(=O)c5c(Br)cccc5n43)CC2)NC(=O)[C@@H]2C[C@@H](O)CN2C(=O)[C@@H](NC(=O)C2(F)CC2)C(C)(C)C)cc1 [Compound 42m]
Result: 4 nM
